- Tested on: Human papillomavirus type 1a protein E7 (residues 44-93)
- test_name: HPV1a E7 fragment binders on microarrays, primary screen, biochemical, small-molecule microarray, residues 44-93, 635 nm fluorescence (AID 1108);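 also: E7 fragment applied at 1 µg/mL in TBST for 1 h at 4 C; score combines spot fluorescence with its signal to noise ratio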
- condition_label: small-molecule microarray binding, fluorescence 635 nm; higher = more signal
I would appreciate it if you labelled entries Satisfied when composite z-score is 0.02 or higher, otherwise Not satisfied.

Below are worked cases with known answers.
CO[C@H]1COC(=O)CCC[C@@H](C)[C@H](OC)COC(=O)[C@@H](C)NC(=O)CC=C[C@@H]1C    Not satisfied
CO[C@H]1COC(=O)[C@H](C)NC(=O)[C@@H](C)COC(=O)[C@H]2CCCN2C(=O)CC=C[C@H]1C    Satisfied
O=C1CCCC=C1C(O)CCOC(c1ccccc1)(c1ccccc1)c1ccccc1 (configuration not stated)    Not satisfied

Task item: Does CCOC(=O)[C@H](CC(C)C)NC(=O)CCC1CC(OC(=O)NCCc2ccc(F)cc2)CC2(CCCC(COC(=O)NCC(c3ccccc3)c3ccccc3)O2)O1 (some centres not stated) have a reported composite z-score of at least 0.02?
Reply: Satisfied

Task item: Proceed to COCOc1ccc(Br)cc1C(=O)[C@@H]1O[C@H]1c1cccc(OC)c1
Reply: Not satisfied

Task item: Proceed to C=Cc1ccc([C@H]2N[C@H](C(=O)O)CC[C@@H]2C)cc1
Reply: Not satisfied

Task item: Proceed to Cc1ccc(S(=O)(=O)NC(CCc2ccccc2)CC(=O)C(C)(C)C)cc1 (configuration not stated)
Reply: Satisfied

Task item: Proceed to COC(=O)CC=C[C@@H](C)[C@@H]1C=C[C@H](O)[C@@H](CO)O1
Reply: Satisfied

Task item: Proceed to COC(=O)[C@H](C)NC(=O)CCC1CC(OC(=O)NCc2ccc3c(c2)OCO3)CC2(CCCC(COC(=O)NCC3CCCCC3)O2)O1 (some centres not stated)
Reply: Satisfied

Task item: Proceed to CON=C(C)CCC(=O)OC[C@H]1O[C@H](c2ccccc2)C=C[C@@H]1Oc1ccc(OC)cc1
Reply: Not satisfied

Task item: Proceed to CO[C@H]1COC(=O)CC=C[C@@H](C)[C@H](OC)COC(=O)CCC[C@@H]1C
Reply: Not satisfied

Task item: Proceed to CCOC(=O)[C@H](CC(C)C)NC(=O)CCC1CC(OC(=O)NCc2ccc3c(c2)OCO3)CC2(CCCC(COC(=O)NCCCN3CCCC3=O)O2)O1 (some centres not stated)
Reply: Satisfied

Task item: Proceed to O=C1C=C[C@@H](O)[C@@H]2[C@@H]3C(=O)N(C[C@@H]4CCCO4)C(=O)[C@@H]3CC[C@@H]12
Reply: Not satisfied

Task item: Proceed to COC(=O)[C@H](C)NC(=O)CCC1CC(OC(=O)NCc2ccc3c(c2)OCO3)CC2(CCCC(COC(=O)NCc3cccc(C(F)(F)F)c3)O2)O1 (some centres not stated)
Reply: Satisfied

====

- test_name: COS7 lysate on small-molecule microarray, probe aHis, 635 nm (AID 1123);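 also: z-score combines 667nm fluorescence intensity with signal-to-noise per printed compound spot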
- condition_label: COS7 cell lysate, fluorescence, higher = more signal
I would appreciate it if you labelled entries True when composite z-score is 0.2 or higher, otherwise False.

O=C1[C@H]2[C@H]3[C@H](O)[C@H](O)CC(=NOCc4ccccc4)[C@@H]3CC[C@H]2C(=O)N1Cc1ccc2c(c1)OCO2    False
CCCNC(=O)OC[C@H]1O[C@H](c2ccccc2)C=C[C@@H]1Oc1ccc(OC)cc1    True
CCOC(=O)[C@H](Cc1ccccc1)NC(=O)CCC1CC(OC(=O)NCCc2ccc(F)cc2)CC2(CCCC(COC(=O)NCCOC)O2)O1 (some centres undefined)    True
CCOC(=O)[C@H](CC(C)C)NC(=O)CCC1CC(OC(=O)NCCc2ccc(F)cc2)CC2(CCCC(COC(=O)NCCc3ccc(Cl)cc3)O2)O1 (some centres undefined)    True
CCOC(=O)[C@H](CC(C)C)NC(=O)CCC1CC(OC(=O)NCCc2ccc(F)cc2)CC2(CCCC(COC(=O)NCCC(C)C)O2)O1 (some centres undefined)    True
CC(C)=CCCC(C)=CCON=C1C[C@@H](O)[C@@H](O)[C@@H]2[C@@H]3C(=O)N(c4ccc(F)cc4F)C(=O)[C@@H]3CC[C@@H]12    False
CCOC(=O)CCN1C(=O)[C@H]2[C@H]3[C@H](O)[C@H](O)CC(=NOCc4ccccc4)[C@H]3CC[C@H]2C1=O    True
CCOC(=O)[C@H](CC(C)C)NC(=O)CCC1CC(OC(=O)NCc2cccc3ccccc23)CC2(CCCC(COC(=O)NCC3CCCCC3)O2)O1 (some centres undefined)    False
CC(C)=NO[C@H](C)c1cn([C@H](CO)Cc2ccccc2)nn1    True
COc1ccc(O[C@H]2C=C[C@@H](c3ccccc3)O[C@@H]2CON=C(C)CCC(=O)OC[C@H]2O[C@H](c3ccccc3)C=C[C@@H]2Oc2ccc(OC)cc2)cc1    False

Task item: Does O=C1[C@H]2[C@H]3[C@H](O)[C@H](O)CC(=NO[C@@H]4O[C@H](CO)[C@@H](O)[C@H](O)[C@H]4O)[C@H]3CC[C@H]2C(=O)N1c1cccc(Oc2ccccc2)c1 have a reported composite z-score of at least 0.2?
Reply: True

Task item: Proceed to CCOC(=O)NN=C1C[C@@H](O)[C@@H](O)[C@@H]2[C@@H]3C(=O)N(c4ccc(F)cc4F)C(=O)[C@@H]3CC[C@@H]12
Reply: True

Task item: Proceed to CC(CCN1CCCCc2nc(C)c(C)cc21)=NO[C@H](C)c1cn([C@H](CO)Cc2ccccc2)nn1
Reply: True

Task item: Proceed to O=C1C=C[C@@H](O)[C@@H]2[C@@H]3C(=O)N(C[C@@H]4CCCO4)C(=O)[C@@H]3CC[C@@H]12
Reply: False
